For each record, write down the corresponding pIC50.
- Tested system: mutant G2019S LRRK2 (Homo sapiens (Human), UniProt Q5S007, G2019S)
- Sequence (Q5S007 970-2527 G2019S): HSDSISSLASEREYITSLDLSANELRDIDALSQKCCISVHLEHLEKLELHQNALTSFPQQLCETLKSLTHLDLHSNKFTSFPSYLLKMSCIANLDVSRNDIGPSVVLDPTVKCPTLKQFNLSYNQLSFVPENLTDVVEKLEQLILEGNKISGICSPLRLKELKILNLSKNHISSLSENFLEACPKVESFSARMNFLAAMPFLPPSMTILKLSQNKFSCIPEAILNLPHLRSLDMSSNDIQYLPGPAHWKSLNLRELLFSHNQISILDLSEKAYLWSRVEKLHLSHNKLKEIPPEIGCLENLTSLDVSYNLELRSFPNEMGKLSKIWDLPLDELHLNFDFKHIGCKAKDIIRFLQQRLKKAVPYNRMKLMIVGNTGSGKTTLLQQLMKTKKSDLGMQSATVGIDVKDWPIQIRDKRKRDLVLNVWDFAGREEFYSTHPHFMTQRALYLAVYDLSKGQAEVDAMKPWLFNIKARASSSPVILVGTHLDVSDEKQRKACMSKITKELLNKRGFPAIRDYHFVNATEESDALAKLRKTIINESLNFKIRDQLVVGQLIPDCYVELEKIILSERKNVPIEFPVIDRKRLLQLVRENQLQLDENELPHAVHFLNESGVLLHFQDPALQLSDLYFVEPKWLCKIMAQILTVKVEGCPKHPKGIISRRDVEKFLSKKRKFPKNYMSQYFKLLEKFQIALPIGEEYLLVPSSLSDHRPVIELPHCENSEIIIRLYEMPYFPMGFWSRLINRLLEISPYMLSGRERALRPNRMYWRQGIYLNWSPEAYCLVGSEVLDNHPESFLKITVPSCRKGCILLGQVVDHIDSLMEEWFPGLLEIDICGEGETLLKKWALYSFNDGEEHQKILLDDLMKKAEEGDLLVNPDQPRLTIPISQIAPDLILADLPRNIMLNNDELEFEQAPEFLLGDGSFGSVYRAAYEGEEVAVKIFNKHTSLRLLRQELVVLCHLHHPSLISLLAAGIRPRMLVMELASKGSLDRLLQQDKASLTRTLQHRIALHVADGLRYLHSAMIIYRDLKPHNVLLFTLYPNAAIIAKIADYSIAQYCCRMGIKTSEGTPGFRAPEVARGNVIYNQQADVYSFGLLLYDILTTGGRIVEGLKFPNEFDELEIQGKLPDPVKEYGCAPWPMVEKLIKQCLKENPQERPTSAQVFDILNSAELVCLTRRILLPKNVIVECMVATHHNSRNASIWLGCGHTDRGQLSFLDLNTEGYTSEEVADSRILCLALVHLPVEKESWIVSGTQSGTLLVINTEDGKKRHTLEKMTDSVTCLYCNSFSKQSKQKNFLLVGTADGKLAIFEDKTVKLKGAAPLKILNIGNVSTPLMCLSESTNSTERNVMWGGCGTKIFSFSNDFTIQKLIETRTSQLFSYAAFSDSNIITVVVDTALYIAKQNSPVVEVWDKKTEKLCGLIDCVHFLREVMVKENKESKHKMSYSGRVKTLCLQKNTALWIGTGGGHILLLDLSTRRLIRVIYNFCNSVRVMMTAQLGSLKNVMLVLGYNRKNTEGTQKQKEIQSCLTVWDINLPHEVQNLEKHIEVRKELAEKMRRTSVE
- Method summary: LRRK2 Lantha Screen kinase assay, mutant enzyme
- Applied conditions: geometric mean of 2-5 determinations unless otherwise indicated (a: >=6 determinations; b: single determination)
Numbers only, as −log10 of the molar value.

In the examples that follow, each entry is paired with its recorded pIC50.
>  <Compound>
C[C@H]1CCCN(c2ncnc3[nH]cc(-c4ccccc4)c23)C1

>  <Tested system>
mutant G2019S LRRK2 (Homo sapiens (Human), UniProt Q5S007, G2019S)

>  <Property label>
pIC50

>  <Measured number>
7.04

$$$$
>  <Compound>
CSc1cccc(-c2c[nH]c3ncnc(N4CCOCC4)c23)c1

>  <Tested system>
mutant G2019S LRRK2 (Homo sapiens (Human), UniProt Q5S007, G2019S)

>  <Property label>
pIC50

>  <Measured number>
7.11

$$$$
>  <Compound>
Clc1cncc(-c2c[nH]c3ncnc(N4CCOCC4)c23)c1

>  <Tested system>
mutant G2019S LRRK2 (Homo sapiens (Human), UniProt Q5S007, G2019S)

>  <Property label>
pIC50

>  <Measured number>
7.44

$$$$

I need pIC50 for every entry listed below, if you could help.
1. COc1ccc(F)cc1-c1c[nH]c2ncnc(N3CCC3)c12
2. Fc1cc(F)cc(-c2c[nH]c3ncnc(N4CCOCC4)c23)c1
3. N#Cc1cccc(-c2c[nH]c3ncnc(N4CCC(F)CC4)c23)c1 [Example 33]
4. N#Cc1cccc(-c2c[nH]c3ncnc(N4CCOC(c5cccc(O)c5)C4)c23)c1 (stereo not drawn)
5. CCC1CN(c2ncnc3[nH]cc(-c4cccc(C#N)c4)c23)CCO1 (stereo not drawn)
6. N#Cc1cccc(-c2c[nH]c3ncnc(N4CCOC(c5nccs5)C4)c23)c1 (stereo not drawn)
7. Cc1ccc(OCC2CN(c3ncnc4[nH]cc(-c5cnn(C)c5)c34)CCO2)cn1 (stereo not drawn)
8. N#Cc1cccc(-c2c[nH]c3ncnc(N4CCCC(F)C4)c23)c1 (stereo not drawn)

1: 7.12; 2: 6.62; 3: 7.02; 4: 6.55; 5: 7.02; 6: 6.74; 7: 7.06; 8: 7.10

I would be grateful if you could provide pIC50 for each of the following entries.
1. Cn1cc(-c2c[nH]c3ncnc(N4CCCC(O)C4)c23)cn1 (stereo not drawn)
2. Cn1cc(-c2c[nH]c3ncnc(N4CCC(F)CC4)c23)cn1
3. CN(C)c1ncnc2[nH]cc(-c3ccccc3)c12
4. COc1ccccc1-c1c[nH]c2ncnc(N(C)C)c12

1: 7.47; 2: 7.30; 3: 7.41; 4: 7.54

---

Would you mind telling me the reported pIC50 of each entry?
- Tested system: GST-tagged truncated LRRK2 (Homo sapiens (Human))
- Sequence (Q5S007 970-2527): as the sequence (Q5S007 970-2527 G2019S) above, with S1050G counted along it
- Method summary: LRRK2 Lantha Screen kinase assay
- Applied conditions: geometric mean of 2-5 determinations unless otherwise indicated (a: >=6 determinations; b: single determination); read-out: LRRK2 WT IC50
Give bare numbers, as −log10 of the molar value.

>  <Compound>
C[C@H]1CN(c2ncnc3[nH]cc(-c4cccc(C#N)c4F)c23)CCO1 [Example 180]

>  <pIC50>
8.00

$$$$
>  <Compound>
N#Cc1cccc(-c2c(C(F)F)[nH]c3ncnc(N4CCOCC4)c23)c1 [Example 198]

>  <pIC50>
6.90

$$$$
>  <Compound>
N#Cc1cccc(-c2c[nH]c3ncnc(N4CCOC(c5ccno5)C4)c23)c1 (stereo not shown) [Example 219]

>  <pIC50>
7.43

$$$$
>  <Compound>
CN(c1ncnc2[nH]cc(-c3cnn(C)c3)c12)C1CC1 [Example 127]

>  <pIC50>
7.43

$$$$
>  <Compound>
N#Cc1cccc(-c2c[nH]c3ncnc(N4CCCC5(CCOC5)C4)c23)c1 (stereo not shown) [Example 43]

>  <pIC50>
7.47

$$$$
>  <Compound>
CC1(C)CN(c2ncnc3[nH]cc(-c4cccc(C#N)c4)c23)CCO1 [Example 210]

>  <pIC50>
7.45

$$$$

Let's switch to this compound now.
What measured pIC50 is associated with Fc1ccc(F)c(-c2c[nH]c3ncnc(N4CCOCC4)c23)c1 [Example 86] on GST-tagged truncated LRRK2 (Homo sapiens (Human))?
7.12
